Every entry's value here was drawn from patent US11166460B2.

Documented inhibition at 50 µg/mL across a set of compounds
system: Phytophthora infestans (Mont) de Bary; assay: microbe, parasite or virus in culture; type: cell-based; details: Phytophthora infestans, read-out: Fungicidal activity, inhibition, PI

Below are worked cases with known answers.
COC(=O)CCNC(=O)/C(=C/c1ccccc1)NC(=O)c1ccccc1 [Compound 35]
13%
CONC(=O)/C(=C/c1csc(C2CCN(C(=O)OC(C)(C)C)CC2)n1)NC(=O)c1ccccc1 [Compound 42]
44%
O=C(N/C(=C\c1cccc(C(F)(F)F)c1)C(=O)N1CCC(O)(c2ccc(Br)cc2)CC1)c1ccccc1 [Compound 21]
2%

# evaluate next
Task: Param readout= inhibition at 50 µg/mL; system= Phytophthora infestans (Mont) de Bary; entry= CNC(=O)/C(=C/c1csc(C2CCN(C(=O)OC(C)(C)C)CC2)n1)NC(=O)c1ccccc1 [Compound 41] ; returns value.
Output: 39%

###

A collection of molecules and their measured inhibition at 50 µg/mL
tested on: Rhizoctonia cerealis; assay: Fungicidal activity, fungi growth rate method, RC; format: cell-based; settings: Ceratobasidium cereale; 50 μg/mL; read-out: Fungicidal activity, inhibition, RC
Provide the reading as a plain figure in %.

O=C(O)/C(=C/c1ccccc1)NC(=O)c1ccc(C(F)(F)F)cc1
9
CC(C)(C)OC(=O)N1CCC(c2nc(/C=C(\NC(=O)c3ccccc3)C(=O)NCc3ccc(Br)cc3)cs2)CC1
21
O=C(NCc1ccc(Br)cc1)/C(=C/c1ccccc1)NC(=O)C1CCCCC1
23
CNC(=O)/C(=C/c1ccccc1)NC(=O)c1ccccc1
4

Task: What value of inhibition at 50 µg/mL on Rhizoctonia cerealis does O=C(N/C(=C\c1c[nH]cn1)C(=O)N1CCC(O)(c2ccc(Br)cc2)CC1)c1ccccc1 have?
Output: 16

Task: I'm curious: which inhibition at 50 µg/mL was measured for O=C(NCc1ccc(Br)cc1)/C(=C/c1ccccc1)NC(=O)c1ccccc1 tested on Rhizoctonia cerealis?
Output: 13

Task: Could you share what inhibition at 50 µg/mL was measured for O=C(N/C(=C\c1ccc(Cl)cc1)C(=O)N1CCC(O)(c2ccc(Br)cc2)CC1)c1ccccc1 , tested on Rhizoctonia cerealis?
Output: 29

Task: inhibition at 50 µg/mL of Cc1ccc(/C=C(\NC(=O)c2ccccc2)C(=O)N2CCC(O)(c3ccc(Br)cc3)CC2)cc1 on Rhizoctonia cerealis?
Output: 16

###

system: Botrytis cinerea; test: Fungicidal activity, fungi growth rate method, BC; type: cell-based; details: Botrytis cinerea; 50 μg/mL; read-out: Fungicidal activity, inhibition, BC
observation.type: inhibition at 50 µg/mL (%)
Express the result in % but write the number alone.

O=C(N/C(=C\c1ccco1)C(=O)N1CCC(O)(c2ccc(Br)cc2)CC1)c1ccccc1
20
O=C(NCc1ccccc1Br)/C(=C/c1ccccc1)NC(=O)c1ccccc1
18
O=C(NCc1ccc(F)cc1)/C(=C/c1ccccc1)NC(=O)c1ccccc1
12

Task: Any idea what its inhibition at 50 µg/mL is? The compound is O=C(NC(Cc1ccccc1)C(=O)N1CCC(O)(c2ccc(Br)cc2)CC1)C1CC1 (centres unmarked)
Output: 15

Task: Data request, read-out inhibition at 50 µg/mL, for O=C(N/C(=C\c1ccccc1)C(=O)N1CCC(O)(c2ccc(Br)cc2)CC1)c1ccccc1 [Compound 76, reference compound]
Output: 18

Task: Recorded inhibition at 50 µg/mL of Cc1nnsc1/C=C(\NC(=O)c1ccccc1)C(=O)O , please.
Output: 12

Task: What measured inhibition at 50 µg/mL goes with CNC(=O)/C(=C/c1ccccc1)NC(=O)c1ccccc1 ?
Output: 11

Task: Given the entry O=C(NCc1ccc(Br)cc1)/C(=C/c1ccccc1)NC(=O)C1CCCCC1 , report its measured inhibition at 50 µg/mL.
Output: 18

Task: # input compound: Cc1nnsc1/C=C(\NC(=O)c1ccccc1)C(=O)N1CCC(O)(c2ccc(Br)cc2)CC1 ; wanted: its inhibition at 50 µg/mL
Output: 26
